Listed next: entries and their corresponding IC50.
# Target Entity: XIAP-BIR3 (Homo sapiens (Human), UniProt P98170)
# Sequence (P98170 241-356): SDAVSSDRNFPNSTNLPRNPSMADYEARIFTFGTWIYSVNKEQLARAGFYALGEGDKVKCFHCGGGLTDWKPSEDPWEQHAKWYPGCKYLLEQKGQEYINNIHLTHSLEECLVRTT
# Run Description: BIR binding assay (FRET competition), XIAP BIR3
Property Name: IC50

>>> observed("C[C@@H]1CN(CC(=O)N2CC(C)(C)c3[nH]c(=O)c(Cc4ccc(F)cc4)cc32)[C@@H](CN2CCO[C@H](COc3ccc(-c4ccc(OC[C@@H]5CN(C[C@H]6CN[C@H](C)CN6CC(=O)N6CC(C)(C)c7[nH]c(=O)c(Cc8ccc(F)cc8)cc76)CCO5)cc4)cc3)C2)CN1 [Example 50]")
"1.38 to 7.94 nM"
>>> observed("C[C@@H]1CN(CC(=O)N2CC(C)(C)c3[nH]c(=O)c(Cc4ccc(F)cc4)cc32)[C@@H](CN2CCN(C(=O)c3ccc(C(=O)N4CCN(C[C@H]5CN[C@H](C)CN5CC(=O)N5CC(C)(C)c6[nH]c(=O)c(Cc7ccc(F)cc7)cc65)[C@H](C)C4)cc3)C[C@H]2C)CN1 [Example 19]")
"1.38 to 7.94 nM"
>>> observed("C[C@@H]1CN(CC(=O)N2CC(C)(C)c3[nH]c(=O)c(Cc4ccc(F)cc4)cc32)[C@@H](CN2CCN(C(=O)CCCCCCCCC(=O)N3CCN(C[C@H]4CN[C@H](C)CN4CC(=O)N4CC(C)(C)c5[nH]c(=O)c(Cc6ccc(F)cc6)cc54)[C@H](C)C3)C[C@H]2C)CN1 [Example 3]")
"31.6 to 501 nM"
>>> observed("C[C@@H]1CN(CC(=O)N2CC(C)(C)c3[nH]c(=O)c(Cc4ccc(F)cc4)cc32)[C@@H](CN2CCN(S(=O)(=O)c3ccc(Oc4ccc(S(=O)(=O)N5CCN(C[C@H]6CN[C@H](C)CN6CC(=O)N6CC(C)(C)c7[nH]c(=O)c(Cc8ccc(F)cc8)cc76)[C@H](C)C5)cc4)cc3)C[C@H]2C)CN1 [Example 30]")
"31.6 to 501 nM"
>>> observed("C[C@@H]1CN(CC(=O)N2CC(C)(C)c3[nH]c(=O)c(Cc4ccc(Cl)cc4Cl)cc32)[C@@H](CN2CCO[C@H](C(=O)NCc3ccc(CNC(=O)[C@@H]4CN(C[C@H]5CN[C@H](C)CN5CC(=O)N5CC(C)(C)c6[nH]c(=O)c(Cc7ccc(Cl)cc7Cl)cc65)CCO4)cc3)C2)CN1 [Compound 165]")
"31.6 to 501 nM"
>>> observed("C[C@@H]1CN(CC(=O)N2CC(C)(C)c3[nH]c(=O)c(Cc4ccc(F)cc4)cc32)[C@@H](CN2CCC(C(F)(F)COc3cccc(OCC(F)(F)C4CCN(C[C@H]5CN[C@H](C)CN5CC(=O)N5CC(C)(C)c6[nH]c(=O)c(Cc7ccc(F)cc7)cc65)CC4)c3)CC2)CN1 [Example 110]")
"15.8 to 31.6 nM"
>>> observed("C[C@@H]1CN(CC(=O)N2CC(C)(C)c3[nH]c(=O)c(Cc4c(F)c(F)c(F)c(F)c4F)cc32)[C@@H](CN2CCO[C@H](C(=O)NCc3ccc(CNC(=O)[C@@H]4CN(C[C@H]5CN[C@H](C)CN5CC(=O)N5CC(C)(C)c6[nH]c(=O)c(Cc7c(F)c(F)c(F)c(F)c7F)cc65)CCO4)cc3)C2)CN1 [Compound 176]")
"31.6 to 501 nM"

Data provenance: patent US20250326771A1
